B1: GLT8D2 (parent)
chain: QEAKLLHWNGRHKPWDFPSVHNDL

variants of: B1; experiment: protein stability index of a GFP-peptide fusion (GPS, HEK-293T) (PSI 1-6); higher = more stable; details: c terminus: a fixed tail appended;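 also: lentivirally expressed fusions sorted by FACS into six bins by GFP to DsRed ratio, PSI derived from sequencing read proportions per bin multiplied by bin number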
parameter measured: protein stability index

sequence_chain="QEAKLIHWNGRHKPWDFPSVHNDL [L6I]" recorded_result=2.67
sequence_chain="QEAKLLHDNGRHKPWDFPSVHNDL [W8D]" recorded_result=3.5
sequence_chain="QEAKLLHWNGRHKPWDFPHVHNDL [S19H]" recorded_result=2.58
sequence_chain="QEAKLLHWNGRHKPWDFPTVHNDL [S19T]" recorded_result=2.33
sequence_chain="QEAKLLHWNGRHKPWDDPSVHNDL [F17D]" recorded_result=3.36
sequence_chain="QEAKLLHWNGRHKPWDFPSVHNDS [L24S]" recorded_result=3.51
sequence_chain="QEAKLLHWNGRHKPWDFPSVKNDL [H21K]" recorded_result=2.75
sequence_chain="QEAKLKHWNGRHKPWDFPSVHNDL [L6K]" recorded_result=2.52
sequence_chain="QEAHLLHWNGRHKPWDFPSVHNDL [K4H]" recorded_result=2.84
sequence_chain="QEAKLLHWNHRHKPWDFPSVHNDL [G10H]" recorded_result=2.48
sequence_chain="QEQKLLHWNGRHKPWDFPSVHNDL [A3Q]" recorded_result=2.58
sequence_chain="QEAKLLHWNGRHKPWDFPSWHNDL [V20W]" recorded_result=2.38
sequence_chain="QEAKLLHWNGRHAPWDFPSVHNDL [K13A]" recorded_result=2.85
sequence_chain="QEAYLLHWNGRHKPWDFPSVHNDL [K4Y]" recorded_result=2.13
sequence_chain="QEAKLLHWNGRHKPKDFPSVHNDL [W15K]" recorded_result=3.27
sequence_chain="QEAKLLHWNKRHKPWDFPSVHNDL [G10K]" recorded_result=2.48
sequence_chain="IEAKLLHWNGRHKPWDFPSVHNDL [Q1I]" recorded_result=1.69
sequence_chain="QEAKLLHWNGRHKPWDFMSVHNDL [P18M]" recorded_result=2.26
sequence_chain="QEAKLLHWNGRHKPWDFVSVHNDL [P18V]" recorded_result=2.82
sequence_chain="QEAKLLHWNGRHKPWAFPSVHNDL [D16A]" recorded_result=1.96
sequence_chain="QEAKLLHWNGRHKPWDFPSVHNCL [D23C]" recorded_result=2.43
sequence_chain="QEAKLLHWNQRHKPWDFPSVHNDL [G10Q]" recorded_result=2.7

These data points were gathered from the supplement of paper PMC10567573.
